# Tested on: HepG2
# test description: Selectivity index, IC50 for human HepG2 cell line/MIC for Mycobacterium tuberculosis
# Format: functional
# true = Selectivity index below 20 (exclusive); false = Selectivity index at/above 20

Clc1ccc(C(c2ccccc2)N2CCN(C3CCC4CCCCC4C3)CC2)cc1 (stereo not given) : true

Continue with the compound presented below.
Check if Selectivity index falls below 20 for `c1ccc(COc2ccc(CN3CCCN(Cc4ccc(OCc5ccccc5)cc4)CC3)cc2)cc1` .
true

###

Reported Selectivity index values follow for various compounds
# Tested on: HepG2
# test description: Selectivity index, IC50 for human HepG2 cell line/MIC for Mycobacterium tuberculosis
# Type: functional
API note: the answer field is a bare number with no unit suffix.

Sample records with Selectivity index:
Fc1ccccc1N1CCN(C2CCC3CCCCC3C2)CC1 (stereo not drawn) : 6
CC1(C)C2CC=C(CN3CCCN(CC4=CCC5CC4C5(C)C)CC3)C1C2 : 35
COc1ccccc1CN1CCN(C(c2ccccc2)c2ccc(Cl)cc2)CC1 (stereo not drawn) : 10
C1CN(C2C3CC4CC(C3)CC2C4)CCN(C2C3CC4CC(C3)CC2C4)C1 (stereo not drawn) : 84.6
C1CCC2CC(N3CCCN(C4CCC5CCCCC5C4)CC3)CCC2C1 (mixture of isomers) : 35
C1CCCC(N2CCCN(C3CCCCCCC3)CC2)CCC1 : 47
CCOc1ccccc1CN1CCCN(Cc2ccccc2OCC)CC1 : 46
CC1(C)C2CC=C(CN3CCN(Cc4ccccc4)CC3)C1C2 (stereo not drawn) : 10

Look at this compound and give its reported Selectivity index. `C=C(C)[C@@H]1CC=C(CN2CCCN(CC3=CC[C@@H](C(=C)C)CC3)CC2)CC1`
13

Would you kindly repeat that for `C=C(C)[C@@H]1CC=C(CN2CCN(Cc3ccccc3)CC2)CC1` ?
19

Then this compound: `c1ccc(COc2ccc(CN3CCN(Cc4ccccc4)CC3)cc2)cc1`
9

Now the same for Fc1ccc(N2CCN(C3CCC4CCCCC4C3)CC2)cc1 (stereo not drawn)
7

One more compound: `COc1ccccc1CN1CCCN(Cc2ccccc2OC)CC1`
17
